Parameter: MIC. Scope: all listed entries.
# Test system: Enterococcus faecium
# Assay details: Antimicrobial activity against VanA expressing vancomycin-resistant Enterococcus faecium by micro broth dilution or agar based method
# Format: functional
# Condition notes: Enterococcus faecium; read-out: MIC
Your answer is read as µg/mL, so omit the unit and give the number.

smiles_string=COc1ccc2ncc(C#N)c(CCC34CCC(NCc5ccc6c(n5)NC(=O)CO6)(CC3)CO4)c2n1 target_of_assay="Enterococcus faecium" unit_text=µg/mL quantitative_readout=0.5
smiles_string=O=C1COc2ccc(CNC34CCC(CCc5ccnc6cc(C(F)(F)F)cnc56)(CC3)OC4)nc2N1 target_of_assay="Enterococcus faecium" unit_text=µg/mL quantitative_readout=64
smiles_string=Nc1ccc2ncc(F)c(CCC34CCC(NCc5ccc6c(n5)NC(=O)CO6)(CC3)CO4)c2n1 target_of_assay="Enterococcus faecium" unit_text=µg/mL quantitative_readout=8
smiles_string=COc1nc2c(CCC34CCC(NCc5ccc6c(n5)NC(=O)CO6)(CC3)CO4)ccnc2cc1F target_of_assay="Enterococcus faecium" unit_text=µg/mL quantitative_readout=4
smiles_string=O=C1COc2ccc(CNC34CCC(CCc5ccnc6cc(Cl)cnc56)(CC3)OC4)nc2N1 target_of_assay="Enterococcus faecium" unit_text=µg/mL quantitative_readout=64

# input // map CN(C)c1nc2c(CCC34CCC(NCc5ccc6c(n5)NC(=O)CO6)(CC3)CO4)ccnc2cc1C(F)(F)F to recorded MIC (system: Enterococcus faecium)
# output 8

# input Now the same for COc1ccc2ncc(C(F)F)c(CCC34CCC(NCc5ccc6c(n5)NC(=O)CO6)(CC3)CO4)c2n1
# output 1

# input Now the same for O=C1COc2ccc(CNC34CCC(CCc5c(F)cnc6ccc(C(=O)O)nc56)(CC3)OC4)nc2N1
# output 16
